Data origin: patent US20260365670A1

- Subject of test: EGFR wild type (Homo sapiens)
- Construct: purchased Carna Bio
- Sequence (P00533 25-1210): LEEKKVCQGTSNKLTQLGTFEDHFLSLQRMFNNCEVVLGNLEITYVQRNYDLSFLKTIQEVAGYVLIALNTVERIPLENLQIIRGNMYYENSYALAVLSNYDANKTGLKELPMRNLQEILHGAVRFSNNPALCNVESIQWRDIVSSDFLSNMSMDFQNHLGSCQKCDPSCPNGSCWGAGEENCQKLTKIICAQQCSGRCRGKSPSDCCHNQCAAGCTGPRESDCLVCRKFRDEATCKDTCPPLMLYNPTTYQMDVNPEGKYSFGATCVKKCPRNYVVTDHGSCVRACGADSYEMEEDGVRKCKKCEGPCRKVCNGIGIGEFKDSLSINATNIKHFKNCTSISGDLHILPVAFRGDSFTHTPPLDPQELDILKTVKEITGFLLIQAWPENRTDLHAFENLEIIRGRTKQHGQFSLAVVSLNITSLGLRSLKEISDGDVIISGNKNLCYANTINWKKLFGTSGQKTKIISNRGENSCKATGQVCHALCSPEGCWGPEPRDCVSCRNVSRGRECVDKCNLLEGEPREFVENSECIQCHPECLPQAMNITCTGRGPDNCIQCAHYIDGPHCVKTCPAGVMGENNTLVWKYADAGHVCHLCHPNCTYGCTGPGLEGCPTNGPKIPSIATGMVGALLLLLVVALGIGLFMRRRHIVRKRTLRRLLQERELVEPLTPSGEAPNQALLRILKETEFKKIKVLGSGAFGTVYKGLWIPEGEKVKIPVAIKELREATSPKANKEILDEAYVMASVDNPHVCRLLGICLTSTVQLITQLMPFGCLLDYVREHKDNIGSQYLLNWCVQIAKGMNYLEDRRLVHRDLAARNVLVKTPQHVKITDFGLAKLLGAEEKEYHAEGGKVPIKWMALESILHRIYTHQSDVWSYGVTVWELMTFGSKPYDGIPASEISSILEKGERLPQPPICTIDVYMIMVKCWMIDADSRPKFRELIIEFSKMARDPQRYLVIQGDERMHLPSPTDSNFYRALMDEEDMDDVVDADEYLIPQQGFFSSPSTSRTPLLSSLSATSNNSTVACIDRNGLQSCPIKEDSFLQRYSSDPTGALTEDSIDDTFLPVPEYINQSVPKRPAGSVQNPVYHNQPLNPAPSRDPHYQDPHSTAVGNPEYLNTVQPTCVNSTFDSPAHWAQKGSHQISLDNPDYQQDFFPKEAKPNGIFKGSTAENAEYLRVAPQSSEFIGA
- Experimental details: Inhibition of EGFR wild type biochemical enzymatic activity (HTRF)
- Conditions used: EGFR WT, 1 mM ATP, 1 h, room temperature, read-out: IC50 (nM) @WT
Experimental endpoint: IC50 (nM)

# Compound, IC50, nM
data = [
    ("CN1CCC2CN(c3ccc4nc5n(c4c3)C34CCC(CC3)CN(CCOc3c(cnn3C)-c3cc(cn(C)c3=O)C(=O)N5)C4)CC21 (stereo not drawn) [Example A127]", 4880),
]

[P] C[C@@H]1CCCOc2c(cnn2C)-c2cc(cn(C)c2=O)C(=O)Nc2nc3ccc(N4CCN(C5COC5)CC4)cc3n2C1 [Example A39]
[Q] CN1CCN(c2ccc3c(c2)nc2n3C34CCC(CN(CCOc5c(cnn5C)-c5cc(cn(C)c5=O)C(=O)N2)C3)C4)CC1 (stereo not drawn) [Example A60B]
[R] Cn1ncc2c1OCCN1CC3CCC(C3)(C1)n1c(nc3ccc(N4CCC(N5CC(F)C5)C4)cc31)NC(=O)c1cc-2c(=O)n(C)c1 (single isomer, unassigned) [Example A94B2]
Query :: Parameters: sort_field (IC50), sort_dir (desc). // format: requested-order list of labels
Result :: Q, P, R
(Q: 4480 nM, P: 1520 nM, R: 289 nM)
